# Test system: 755483-174-R-J1-PDC complex spheroid growth, percent test/control
# test name: Anticancer human tumor 755483-174-R-J1-PDC patient-derived rhabdomyosarcoma cell line growth inhibition [Asc]
# test settings: second compound 0.316 µM; first compound 0.00316 µM; hits give low values
Rule: viability, T/C below 20% gives class 1. Equal to or above 20% gives class 0.

Field: example entries. Status: answers known.
{"compound": "Cn1ncnc1[C@H]1c2n[nH]c(=O)c3cc(F)cc(c23)N[C@@H]1c1ccc(F)cc1 + CNC(C)C(=O)NC1CN(S(=O)(=O)c2cccc(S(=O)(=O)N3CCC4CCC(C(=O)NC(c5ccccc5)c5ccccc5)N4C(=O)C(NC(=O)C(C)NC)C3)c2)CCC2CCC(C(=O)NC(c3ccccc3)c3ccccc3)N2C1=O", "system under test": "755483-174-R-J1-PDC complex spheroid growth, percent test/control", "assigned class": "class 1"}
{"compound": "CCN1CCN(Cc2ccc(Nc3ncc(F)c(-c4cc(F)c5nc(C)n(C(C)C)c5c4)n3)nc2)CC1 + CNC(C)C(=O)NC1CN(S(=O)(=O)c2cccc(S(=O)(=O)N3CCC4CCC(C(=O)NC(c5ccccc5)c5ccccc5)N4C(=O)C(NC(=O)C(C)NC)C3)c2)CCC2CCC(C(=O)NC(c3ccccc3)c3ccccc3)N2C1=O", "system under test": "755483-174-R-J1-PDC complex spheroid growth, percent test/control", "assigned class": "class 1"}
{"compound": "COc1c(OCCCN2CCOCC2)ccc2c3n(c(=NC(=O)c4cnc(N)nc4)nc12)CCN3 + Cc1c(S(C)(=O)=O)c(-c2cc(F)cc(N3CCN(c4ccc(NS(=O)(=O)c5ccc(NC(CCN6CCC(C(=O)OCCCP(=O)(O)O)CC6)CSc6ccccc6)c(S(=O)(=O)C(F)(F)F)c5)cc4)CC3)c2)c(-c2ccc(Cl)cc2)n1C(C)C", "system under test": "755483-174-R-J1-PDC complex spheroid growth, percent test/control", "assigned class": "class 0"}
{"compound": "COc1c(OCCCN2CCOCC2)ccc2c3n(c(=NC(=O)c4cnc(N)nc4)nc12)CCN3 + CNC(C)C(=O)NC1CN(S(=O)(=O)c2cccc(S(=O)(=O)N3CCC4CCC(C(=O)NC(c5ccccc5)c5ccccc5)N4C(=O)C(NC(=O)C(C)NC)C3)c2)CCC2CCC(C(=O)NC(c3ccccc3)c3ccccc3)N2C1=O", "system under test": "755483-174-R-J1-PDC complex spheroid growth, percent test/control", "assigned class": "class 0"}

QUERY: # check: viability, T/C < 20% for NC1CCC(NC2CC2c2ccccc2)CC1 (stereo not given) + Cc1c(S(C)(=O)=O)c(-c2cc(F)cc(N3CCN(c4ccc(NS(=O)(=O)c5ccc(NC(CCN6CCC(C(=O)OCCCP(=O)(O)O)CC6)CSc6ccccc6)c(S(=O)(=O)C(F)(F)F)c5)cc4)CC3)c2)c(-c2ccc(Cl)cc2)n1C(C)C
RESULT: class 0

====

# Tested on: 755483-174-R-J1-PDC complex spheroid growth, percent test/control
# test name: Anticancer human tumor 755483-174-R-J1-PDC cell line growth inhibition [Asc];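 further: spheroids exposed to compounds for seven days before readout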
# test settings: second compound 0.3 µM; first compound 0.1 µM; hits give low values
observed property: viability, T/C (%)
Answers are plain numbers, in %.

{"compound": "C=C(F)C(=O)N1CCN(c2nc(OCC3CCCN3C)nc3c2CCN(c2cccc4cccc(Cl)c24)C3)CC1CC#N (stereo not given) + CCN1C(C(=O)NC23CCC(C(=O)O)(CC2)CC3)C(c2cccc(Cl)c2F)C2(C(=O)Nc3cc(Cl)ccc32)C12CCCCC2", "observed property": "viability, T/C", "val": 106}
{"compound": "CCN1CCN(Cc2ccc(Nc3ncc(F)c(-c4cc(F)c5nc(C)n(C(C)C)c5c4)n3)nc2)CC1 + CCN1C(C(=O)NC23CCC(C(=O)O)(CC2)CC3)C(c2cccc(Cl)c2F)C2(C(=O)Nc3cc(Cl)ccc32)C12CCCCC2", "observed property": "viability, T/C", "val": 113}
{"compound": "C#Cc1c(F)ccc2cc(O)cc(-c3ncc4c(N5CC6CCC(C5)N6)nc(OCC56CCCN5CC(F)C6)nc4c3F)c12 (stereo not given) + CCN1C(C(=O)NC23CCC(C(=O)O)(CC2)CC3)C(c2cccc(Cl)c2F)C2(C(=O)Nc3cc(Cl)ccc32)C12CCCCC2", "observed property": "viability, T/C", "val": 88.4}
{"compound": "C=CC(=O)N1CCN(c2nc(=O)n(-c3c(C)ccnc3C(C)C)c3nc(-c4c(O)cccc4F)c(F)cc23)C(C)C1 (stereo not given) + CCN1C(C(=O)NC23CCC(C(=O)O)(CC2)CC3)C(c2cccc(Cl)c2F)C2(C(=O)Nc3cc(Cl)ccc32)C12CCCCC2", "observed property": "viability, T/C", "val": 80.6}
{"compound": "CNC(C)C(=O)NC1CN(S(=O)(=O)c2cccc(S(=O)(=O)N3CCC4CCC(C(=O)NC(c5ccccc5)c5ccccc5)N4C(=O)C(NC(=O)C(C)NC)C3)c2)CCC2CCC(C(=O)NC(c3ccccc3)c3ccccc3)N2C1=O (stereo not given) + CCN1C(C(=O)NC23CCC(C(=O)O)(CC2)CC3)C(c2cccc(Cl)c2F)C2(C(=O)Nc3cc(Cl)ccc32)C12CCCCC2", "observed property": "viability, T/C", "val": 39.1}

Give one value of viability, T/C per listed compound.
1. O=C(c1ccc(F)c(F)c1Nc1ccc(I)cc1F)N1CC(O)([C@@H]2CCCCN2)C1 + CCN1C(C(=O)NC23CCC(C(=O)O)(CC2)CC3)C(c2cccc(Cl)c2F)C2(C(=O)Nc3cc(Cl)ccc32)C12CCCCC2
2. Cn1ncnc1[C@H]1c2n[nH]c(=O)c3cc(F)cc(c23)N[C@@H]1c1ccc(F)cc1 + CCN1C(C(=O)NC23CCC(C(=O)O)(CC2)CC3)C(c2cccc(Cl)c2F)C2(C(=O)Nc3cc(Cl)ccc32)C12CCCCC2
3. NC1CCC(NC2CC2c2ccccc2)CC1 (stereo not given) + CCN1C(C(=O)NC23CCC(C(=O)O)(CC2)CC3)C(c2cccc(Cl)c2F)C2(C(=O)Nc3cc(Cl)ccc32)C12CCCCC2
4. COc1c(OCCCN2CCOCC2)ccc2c3n(c(=NC(=O)c4cnc(N)nc4)nc12)CCN3 + CCN1C(C(=O)NC23CCC(C(=O)O)(CC2)CC3)C(c2cccc(Cl)c2F)C2(C(=O)Nc3cc(Cl)ccc32)C12CCCCC2
5. O=C(c1cc(Cc2n[nH]c(=O)c3ccccc23)ccc1F)N1CCN(C(=O)C2CC2)CC1 + CCN1C(C(=O)NC23CCC(C(=O)O)(CC2)CC3)C(c2cccc(Cl)c2F)C2(C(=O)Nc3cc(Cl)ccc32)C12CCCCC2

RESULT:
1. 118
2. 32.6
3. 112
4. 22.7
5. 63
